TGT: Delta-type opioid receptor (Rattus norvegicus)
Sequence (P33533 whole entry): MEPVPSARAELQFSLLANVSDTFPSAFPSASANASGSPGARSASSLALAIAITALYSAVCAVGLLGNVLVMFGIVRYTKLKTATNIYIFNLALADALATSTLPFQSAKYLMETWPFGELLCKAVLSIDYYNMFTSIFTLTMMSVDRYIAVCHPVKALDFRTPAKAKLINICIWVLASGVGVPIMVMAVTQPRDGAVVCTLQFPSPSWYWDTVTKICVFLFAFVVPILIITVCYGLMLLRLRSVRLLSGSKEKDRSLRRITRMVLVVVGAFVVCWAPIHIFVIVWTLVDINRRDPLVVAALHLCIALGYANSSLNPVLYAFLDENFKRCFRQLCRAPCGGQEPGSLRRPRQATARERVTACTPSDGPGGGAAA
MEASUREMENT NOTES: Inhibition of [3H]-DADLE binding to Opioid receptor delta 1 of rat brain membranes

COMPOUND	Ki
C[C@H]1CN(C2CCCCC2)CC[C@@]1(C)c1cccc(O)c1	> 7.3 µM
C[C@H]1CN(C2CCCC2)CC[C@@]1(C)c1cccc(O)c1	> 7.3 µM
C[C@H]1CN(C2CCCC(O)(c3ccccc3)C2)CC[C@@]1(C)c1cccc(O)c1 (some centres undefined)	> 7.3 µM
C[C@H]1CN(C2CCCC(O)C2)CC[C@@]1(C)c1cccc(O)c1 (some centres undefined)	> 7.3 µM

====

TGT: Kappa-type opioid receptor (Cavia porcellus, UniProt P41144)
Sequence (P41144 whole entry): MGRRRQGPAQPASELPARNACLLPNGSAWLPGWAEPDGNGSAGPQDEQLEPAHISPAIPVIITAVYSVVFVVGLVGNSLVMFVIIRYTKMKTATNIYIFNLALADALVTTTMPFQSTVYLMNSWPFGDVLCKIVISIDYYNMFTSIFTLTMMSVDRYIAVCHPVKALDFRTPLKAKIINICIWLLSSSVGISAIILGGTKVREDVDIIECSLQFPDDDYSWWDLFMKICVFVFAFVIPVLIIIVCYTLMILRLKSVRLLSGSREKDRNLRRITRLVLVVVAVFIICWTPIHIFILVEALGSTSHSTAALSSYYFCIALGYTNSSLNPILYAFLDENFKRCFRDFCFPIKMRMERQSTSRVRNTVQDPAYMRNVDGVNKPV
MEASUREMENT NOTES: Inhibition of [3H]U-69593 binding to Opioid receptor kappa 1 of guinea pig membranes
pKi: −log10 of the molar value.

COMPOUND	pKi
C[C@H]1CN(C/C=C\c2ccccc2)CC[C@@]1(C)c1cccc(O)c1	6.53
C[C@H]1CN(C[C@@H]2C[C@H]2c2ccccc2)CC[C@@]1(C)c1cccc(O)c1	7.09
C[C@H]1CN(C2CCCC(O)C2)CC[C@@]1(C)c1cccc(O)c1 (stereo partly specified)	5.94
C[C@H]1CN(C/C=C/c2ccccc2)CC[C@@]1(C)c1cccc(O)c1	6.91
C[C@H]1CN(C/C=C/c2ccccc2Cl)CC[C@@]1(C)c1cccc(O)c1	7.45
C[C@H]1CN(C2CCCC2)CC[C@@]1(C)c1cccc(O)c1	6.70
